Tested on: 786-O
Assay: GI50, drug alone; higher = less potent
Settings: treatment: drug alone; 5 days

{"COMPOUND": "COc1cc2nccc(Oc3ccc(NC(=O)Nc4cc(C)on4)c(Cl)c3)c2cc1OC", "VALUE COMPARATOR": ">", "GI50, drug alone, nM": 10000}
{"COMPOUND": "CC(C)CC(=O)Nc1n[nH]c2c1CN(C(=O)C1CCN(C)CC1)C2(C)C", "VALUE COMPARATOR": "=", "GI50, drug alone, nM": 120}
{"COMPOUND": "Cc1[nH]c(/C=C2\\C(=O)Nc3ccc(S(=O)(=O)Cc4c(Cl)cccc4Cl)cc32)c(C)c1C(=O)N1CCC[C@@H]1CN1CCCC1", "VALUE COMPARATOR": "=", "GI50, drug alone, nM": 4160}
{"COMPOUND": "O=C(NC[C@H](O)CO)c1ccncc1Nc1ccc(I)cc1F", "VALUE COMPARATOR": "=", "GI50, drug alone, nM": 247}
{"COMPOUND": "COc1cc(Nc2ncc(F)c(Nc3ccc4c(n3)N(COP(=O)([O-])[O-])C(=O)C(C)(C)O4)n2)cc(OC)c1OC.[Na+].[Na+]", "VALUE COMPARATOR": "=", "GI50, drug alone, nM": 1240}
{"COMPOUND": "O=C1NC(=O)/C(=C/c2ccc3c(c2)OC(F)(F)O3)S1", "VALUE COMPARATOR": ">", "GI50, drug alone, nM": 10000}
{"COMPOUND": "O=C(c1ccc(/C=C/c2n[nH]c3ccccc23)cc1)N1CCNCC1", "VALUE COMPARATOR": ">", "GI50, drug alone, nM": 10000}
{"COMPOUND": "CO[C@H]1CC2CC[C@@H](C)[C@@](O)(O2)C(=O)C(=O)N2CCCC[C@H]2C(=O)O[C@H]([C@H](C)C[C@@H]2CCC(OC(=O)C(C)(CO)CO)[C@H](OC)C2)CC(=O)[C@H](C)/C=C(\\C)[C@@H](O)[C@@H](OC)C(=O)[C@H](C)C[C@H](C)/C=C/C=C/C=C/1C (stereo in doubt)", "VALUE COMPARATOR": "<", "GI50, drug alone, nM": 3}

meta.source: the supplement of paper PMC8149375
